Biological target: hGLP-1R (Homo sapiens, UniProt P43220)
Assay: cell-based or functional assay
*1 amine or outer side, *2 acyl side, *3 side chain or, on linkers, in order; H or OH if unused. Where no end group is shown, it is not given here. Side-chain parts run from the residue outwards. [ ]: non-standard residue; d: D form. The star is where a group is joined. αMePhe(2-F) = C[C@](N)(Cc1ccccc1F)C(=O)O; γGlu = O=C(O)[C@H](CCC(=O)[*:2])N[*:1]; αMeY = C[C@](N)(Cc1ccc(O)cc1)C(=O)O; 4Pal = N[C@@H](Cc1ccncc1)C(=O)O; αMeL = CC(C)C[C@](C)(N)C(=O)O; Lauroyl = CCCCCCCCCCCC(=O)*; Orn = NCCC[C@H](N)C(=O)O; AEEA = NCCOCCOCC(=O)O; Aib = CC(C)(N)C(=O)O
So basically, the class depends on measured cAMP EC50, and the ranges are category 1 = under 0.2 nM, category 2 = from 0.2 nM up to 0.3 nM, category 3 = 0.3 nM and over

Some entries whose results are on file:
YXEGTXTSDYXIXLDXKAQXKFIXXLIEGGPSSGAPPPS (Y-Aib-EGT-αMeF(2F)-TSDY-Aib-I-αMeL-LD-Orn-K((2-[2-(2-Amino-ethoxy)-ethoxy]-acetyl)-(γ-Glu)-(10-(4-carboxyphenoxy)decanoyl))AQ-Aib-K((2-[2-(2-Amino-ethoxy)-ethoxy]-acetyl)-(γ-Glu)-(10-(4-carboxyphenoxy)decanoyl))FI-(D-Glu)-αMeY-LIEGGPSSGAPPPS-NH2) [Example 372] ... category 2
YXEGTXTSDXXIXLDXKAQXXFIXXLIKGGPSSGAPPPS (Y-Aib-EGT-αMeF(2F)-TSD-4Pal-Aib-I-αMeL-LD-Orn-K((2-[2-(2-Amino-ethoxy)-ethoxy]-acetyl)2-(γ-Glu)-CO-(CH2)10-CH3)AQ-Aib-4Pal-FI-(D-Glu)-αMeY-LIK((2-[2-(2-Amino-ethoxy)-ethoxy]-acetyl)2-(γ-Glu)-CO-(CH2)10-CH3)GGPSSGAPPPS-NH2) [Example 416] ... category 3
YXEGTXTSDXXIXLDXKAQXEFIXXLIEGGPSSGAPPPSK (Y-Aib-EGT-αMeF(2F)-TSD-4Pal-Aib-I-αMeL-LD-Orn-K((2-[2-(2-Amino-ethoxy)-ethoxy]-acetyl)-(y-Glu)-(10-(4-carboxyphenoxy)decanoyl))AQ-Aib-EFI-(D-Glu)-αMeY-LIEGGPSSGAPPPSK((2-[2-(2-Amino-ethoxy)-ethoxy]-acetyl)-(γ-Glu)-(10-(4-carboxyphenoxy)decanoyl))-NH2) [Example 362] ... category 3
YXEGTXTSDXXIXLDXQAQXKFIXXLIEGGPSSGAPPPSK (Y-Aib-EGT-αMeF(2F)-TSD-4Pal-Aib-I-αMeL-LD-Orn-QAQ-Aib-K((2-[2-(2-Amino-ethoxy)-ethoxy]-acetyl)2-(γ-Glu)-CO-(CH2)12-CO2H)FI-(D-Glu)-αMeY-LIEGGPSSGAPPPSK((2-[2-(2-Amino-ethoxy)-ethoxy]-acetyl)2-(γ-Glu)-CO-(CH2)12-CO2H)-NH2) [Example 489] ... category 2
YXEGTXTSDYXIXLDXKAQXEFIXXLIEGGPSSGAPPPSK (Y-Aib-EGT-αMeF(2F)-TSDY-Aib-I-αMeL-LD-Orn-K((2-[2-(2-Amino-ethoxy)-ethoxy]-acetyl)-(γ-Glu)-(10-(4-carboxyphenoxy)decanoyl))AQ-Aib-EFI-(D-Glu)-αMeY-LIEGGPSSGAPPPSK((2-[2-(2-Amino-ethoxy)-ethoxy]-acetyl)-(γ-Glu)-(10-(4-carboxyphenoxy)decanoyl))-NH2) [Example 374] ... category 2

Place this binder in its band: Y[Aib]EGT[αMePhe(2-F)]TSDK([AEEA-AEEA-γGlu-Lauroyl])[Aib]I[αMeL]LD[Orn]K([AEEA-AEEA-γGlu-Lauroyl])AQ[Aib][4Pal]FI[dE][αMeY]LIEGGPSSGAPPPS-NH2 [Example 415] category 1

Place this binder in its band: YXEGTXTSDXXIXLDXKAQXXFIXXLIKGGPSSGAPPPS (Y-Aib-EGT-αMeF(2F)-TSD-4Pal-Aib-I-αMeL-LD-Orn-K((2-[2-(2-Amino-ethoxy)-ethoxy]-acetyl)2-(α-Glu)-(10-(4-carboxyphenoxy)decanoyl))AQ-Aib-Om-FI-(D-Glu)-αMeY-LIK((2-[2-(2-Amino-ethoxy)-ethoxy]-acetyl)2-(γ-Glu)-(10-(4-carboxyphenoxy)decanoyl))GGPSSGAPPPS-NH2) [Example 351] category 3

Place this binder in its band: YXEGTXTSDVXIXLDXKAQXKFIXXLIEGGPSSGAPPPS (Y-Aib-EGT-αMeF(2F)-TSDV-Aib-I-αMeL-LD-Orn-K((2-[2-(2-Amino-ethoxy)-ethoxy]-acetyl)2-(γ-Glu)-(10-(4-carboxyphenoxy)decanoyl))AQ-Aib-K((2-[2-(2-Amino-ethoxy)-ethoxy]-acetyl)2-(γ-Glu)-(10-(4-carboxyphenoxy)decanoyl))FI-(D-Glu)-αMeY-LIEGGPSSGAPPPS-NH2) [Example 319] category 1

Place this binder in its band: YXEGTXTSDXXIXLDXKAQXEFIXXLIKGGPSSGAPPPS (Y-Aib-EGT-αMeF(2F)-TSD-4Pal-Aib-I-αMeL-LD-Orn-K((2-[2-(2-Amino-ethoxy)-ethoxy]-acetyl)-(γ-Glu)-(10-(4-carboxyphenoxy)decanoyl))AQ-Aib-EFIe-αMeY-LIK((2-[2-(2-Amino-ethoxy)-ethoxy]-acetyl)-(γ-Glu)-(10-(4-carboxyphenoxy)decanoyl))GGPSSGAPPPS-NH2) [Example 361] category 3

Place this binder in its band: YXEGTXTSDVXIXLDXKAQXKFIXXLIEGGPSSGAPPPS (Y-Aib-EGT-αMeF(2F)-TSDV-Aib-I-αMeL-LD-Orn-K((2-[2-(2-Amino-ethoxy)-ethoxy]-acetyl)-(γ-Glu)-CO-(CH2)12-CO2H)AQ-Aib-K((2-[2-(2-Amino-ethoxy)-ethoxy]-acetyl)-(γ-Glu)-CO-(CH2)12-CO2H)FI-(D-Glu)-αMeY-LIEGGPSSGAPPPS-NH2) [Example 398] category 2

Place this binder in its band: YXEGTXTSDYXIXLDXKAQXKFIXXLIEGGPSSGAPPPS (Y-Aib-EGT-αMeF(2F)-TSDY-Aib-I-αMeL-LD-Orn-K((2-[2-(2-Amino-ethoxy)-ethoxy]-acetyl)2-CO-(CH2)12-CO2H)AQ-Aib-K((2-[2-(2-Amino-ethoxy)-ethoxy]-acetyl)2-CO-(CH2)12-CO2H)FI-(D-Glu)-αMeY-LIEGGPSSGAPPPS-NH2) [Example 385] category 1
